B1: Azoarcus group I ribozyme (parent)
chain: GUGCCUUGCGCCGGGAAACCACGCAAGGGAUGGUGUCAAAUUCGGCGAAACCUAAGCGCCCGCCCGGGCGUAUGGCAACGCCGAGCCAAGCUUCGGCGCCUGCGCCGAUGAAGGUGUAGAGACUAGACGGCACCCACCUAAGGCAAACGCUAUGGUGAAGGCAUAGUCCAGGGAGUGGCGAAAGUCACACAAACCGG

- Variants of: B1
- procedure-summary: reverse-splicing fitness (ratio to wild type); higher = more active; in vitro selection; Mg2+ level not given
Below: a set of entries, each annotated with reported reverse-splicing fitness.
Enter the number alone.

Known reverse-splicing fitness results, listed for orientation:
>>> value_reported("C82A A120C A145C C150U C169U U176C")
0.00988
>>> value_reported("A111C A120G C150G C169A U176A")
0.00971
>>> value_reported("A145C C150G C169A U176A")
0.00984
>>> value_reported("C82G A111C A145G C150G C169U U176A")
0.0103
>>> value_reported("C82A A111C A120G C150G C169A U176A")
0.0102
>>> value_reported("C82U A111C A120G A145G C150A C169A")
0.00989

Next variant, please.
**Q:** Which reverse-splicing fitness value belongs to C82A A111U A120G A145C C150A U176C ?
**A:** 0.0098
